FYI, the data here is from the supplement of paper PMC7877785.

Test: self-splicing fitness, log relative to wild type (ln ratio); higher = more splicing; Tetrahymena group I intron in knt gene, E. coli kanamycin selection, DiMSum; sequences stand for … in CUCUCU…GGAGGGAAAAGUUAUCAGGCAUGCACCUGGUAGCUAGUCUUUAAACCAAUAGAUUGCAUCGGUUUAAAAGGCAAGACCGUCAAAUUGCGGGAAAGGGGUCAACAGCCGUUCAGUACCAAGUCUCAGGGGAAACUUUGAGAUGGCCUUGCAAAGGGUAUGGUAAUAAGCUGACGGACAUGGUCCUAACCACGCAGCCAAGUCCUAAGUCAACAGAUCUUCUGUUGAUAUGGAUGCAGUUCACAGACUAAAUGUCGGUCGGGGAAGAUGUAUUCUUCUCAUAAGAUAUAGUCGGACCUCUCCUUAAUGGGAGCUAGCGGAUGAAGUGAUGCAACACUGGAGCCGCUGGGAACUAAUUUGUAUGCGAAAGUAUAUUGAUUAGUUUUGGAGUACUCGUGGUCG;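 note: selection with 25 µg/mL kanamycin versus none on LB agar overnight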
Conditions: 30 °C
Grouping by measured self-splicing fitness (ln) is done with the following cut points: low (below -3), mid (-3 to below -1), high (-1 or more)

> print(dat)
         residue.string  class.label
1  CCGUAGCAAUAUUACGGCAC          low
2  AUUUAGCAAUAUUACGUACC         high
3  GGUGAGCAAUAUUACGCGUA          mid

Which self-splicing fitness (ln) category applies to GAGGAGCAAUAUUACGUCGU here?
high

----------
Test: self-splicing fitness, log relative to wild type (ln ratio); higher = more splicing; Tetrahymena group I intron in knt gene, E. coli kanamycin selection, DiMSum; sequences stand for … in CUCUCU…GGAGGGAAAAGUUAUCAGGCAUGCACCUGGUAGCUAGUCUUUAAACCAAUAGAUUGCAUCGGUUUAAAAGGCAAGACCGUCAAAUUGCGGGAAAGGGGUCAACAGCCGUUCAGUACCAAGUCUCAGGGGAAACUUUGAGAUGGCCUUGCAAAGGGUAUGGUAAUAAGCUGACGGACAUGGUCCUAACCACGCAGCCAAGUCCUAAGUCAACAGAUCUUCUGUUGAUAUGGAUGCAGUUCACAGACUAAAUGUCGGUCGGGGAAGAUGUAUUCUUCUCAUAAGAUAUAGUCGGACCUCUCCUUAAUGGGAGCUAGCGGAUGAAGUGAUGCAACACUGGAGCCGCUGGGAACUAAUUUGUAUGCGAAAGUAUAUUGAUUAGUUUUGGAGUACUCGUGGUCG
Settings: 30 °C
Experimental Endpoint: self-splicing fitness (ln)
Respond using a number only.

Worked examples follow.
> print(dat)
         residue.string       experimental.endpoint  observed.result
1  CAAAAGCAAUAUUACGCACU  self-splicing fitness (ln)            -1.57
2  UCACAGCAAUAUUACGUGAC  self-splicing fitness (ln)            -3.26
3  CUUCAGCAAUAUUACGAUUA  self-splicing fitness (ln)            -3.05

Memo: ACCAAGCAAUAUUACGUAAG , reported self-splicing fitness (ln): -2.18

Memo: UUGAAGCAAUAUUACGAAAA , reported self-splicing fitness (ln): -0.641

Memo: CACCAGCAAUAUUACGGAAA , reported self-splicing fitness (ln): -1.63

Memo: GGCGAGCAAUAUUACGCGAA , reported self-splicing fitness (ln): -2.45

Memo: UACUAGCAAUAUUACGGGUA , reported self-splicing fitness (ln): -2.08

Memo: CCUAAGCAAUAUUACGAGCA , reported self-splicing fitness (ln): -2.92

Memo: CCAAAGCAAUAUUACGGUUG , reported self-splicing fitness (ln): -1.18

Memo: UCGUAGCAAUAUUACGGAGU , reported self-splicing fitness (ln): -2.81

Memo: UCGGAGCAAUAUUACGCGGG , reported self-splicing fitness (ln): -4.21

Memo: CGGCAGCAAUAUUACGUGGA , reported self-splicing fitness (ln): -2.73

Memo: CUCGAGCAAUAUUACGGACU , reported self-splicing fitness (ln): -2.35

Memo: UCUUAGCAAUAUUACGUGCG , reported self-splicing fitness (ln): -2.14

Memo: AUCAAGCAAUAUUACGUCCU , reported self-splicing fitness (ln): -0.37

----------
Assay: self-splicing fitness, log relative to wild type (ln ratio); higher = more splicing; Tetrahymena group I intron in knt gene, E. coli kanamycin selection, DiMSum; sequences stand for … in CUCUCU…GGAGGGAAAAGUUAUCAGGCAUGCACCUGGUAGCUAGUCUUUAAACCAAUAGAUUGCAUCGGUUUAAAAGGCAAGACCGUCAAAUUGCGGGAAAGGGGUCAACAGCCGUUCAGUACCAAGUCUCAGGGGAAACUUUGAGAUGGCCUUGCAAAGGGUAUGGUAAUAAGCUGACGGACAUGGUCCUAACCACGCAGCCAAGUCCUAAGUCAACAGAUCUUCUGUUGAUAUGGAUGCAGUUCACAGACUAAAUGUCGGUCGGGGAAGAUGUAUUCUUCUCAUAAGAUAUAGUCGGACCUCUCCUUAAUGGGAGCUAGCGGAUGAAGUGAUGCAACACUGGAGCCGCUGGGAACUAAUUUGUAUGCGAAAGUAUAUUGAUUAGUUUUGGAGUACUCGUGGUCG
Conditions: 30 °C
Returns T if the recorded self-splicing fitness (ln) is greater than or equal to -2, and F otherwise.

> print(dat)
         residue.string  class.label
1  GGGAAGCAAUAUUACGUAGC            T
2  UAGGAGCAAUAUUACGCGAG            F
3  CGAGAGCAAUAUUACGAUGU            F
4  GCCCAGCAAUAUUACGAGGA            T
5  UAAAAGCAAUAUUACGUGUC            F

I'd appreciate it if you could say whether CGCCAGCAAUAUUACGUUCA has self-splicing fitness (ln) at least equal to -2.
F

I'd appreciate it if you could say whether UAUAAGCAAUAUUACGGAUA has self-splicing fitness (ln) at least equal to -2.
T

I'd appreciate it if you could say whether GUCCAGCAAUAUUACGGCGG has self-splicing fitness (ln) at least equal to -2.
F

I'd appreciate it if you could say whether GUAUAGCAAUAUUACGCGUG has self-splicing fitness (ln) at least equal to -2.
F

----------
Experiment: self-splicing fitness, log relative to wild type (ln ratio); higher = more splicing; Tetrahymena group I intron in knt gene, E. coli kanamycin selection, DiMSum; sequences stand for … in CUCUCU…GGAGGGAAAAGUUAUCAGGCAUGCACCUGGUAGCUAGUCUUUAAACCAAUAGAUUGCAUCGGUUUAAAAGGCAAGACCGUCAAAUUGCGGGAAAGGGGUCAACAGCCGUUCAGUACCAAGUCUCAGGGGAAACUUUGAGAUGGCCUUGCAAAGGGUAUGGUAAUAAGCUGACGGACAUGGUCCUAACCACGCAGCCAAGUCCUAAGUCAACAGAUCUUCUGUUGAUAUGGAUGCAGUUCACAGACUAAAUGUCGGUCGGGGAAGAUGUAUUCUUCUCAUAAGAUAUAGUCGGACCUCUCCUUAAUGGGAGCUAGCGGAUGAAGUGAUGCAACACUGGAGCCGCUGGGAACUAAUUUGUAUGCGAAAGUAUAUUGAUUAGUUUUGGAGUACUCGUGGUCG
Details: 37 °C
Below, each of the sequences is paired with its reported self-splicing fitness (ln) value.
Respond using a number only.

Memo: UUGCAGCAAUAUUACGCCUC , reported self-splicing fitness (ln): -0.787

Memo: GCUGAGCAAUAUUACGCGGU , reported self-splicing fitness (ln): -2.02

Memo: AAGGAGCAAUAUUACGCCGU , reported self-splicing fitness (ln): -1.16

Memo: UAAGAGCAAUAUUACGGUAG , reported self-splicing fitness (ln): -2.57

Memo: UGCAAGCAAUAUUACGUAUU , reported self-splicing fitness (ln): -2.08

Memo: ACACAGCAAUAUUACGGUGG , reported self-splicing fitness (ln): -1.67

Memo: CCUAAGCAAUAUUACGAGGG , reported self-splicing fitness (ln): -3

Memo: CGUCAGCAAUAUUACGAUCA , reported self-splicing fitness (ln): 0.228

Memo: GACCAGCAAUAUUACGCCAA , reported self-splicing fitness (ln): -1.45

----------
Below, each of the sequences is paired with its reported self-splicing fitness (ln) value.
Assay: self-splicing fitness, log relative to wild type (ln ratio); higher = more splicing; Tetrahymena group I intron in knt gene, E. coli kanamycin selection, DiMSum; sequences stand for … in CUCUCU…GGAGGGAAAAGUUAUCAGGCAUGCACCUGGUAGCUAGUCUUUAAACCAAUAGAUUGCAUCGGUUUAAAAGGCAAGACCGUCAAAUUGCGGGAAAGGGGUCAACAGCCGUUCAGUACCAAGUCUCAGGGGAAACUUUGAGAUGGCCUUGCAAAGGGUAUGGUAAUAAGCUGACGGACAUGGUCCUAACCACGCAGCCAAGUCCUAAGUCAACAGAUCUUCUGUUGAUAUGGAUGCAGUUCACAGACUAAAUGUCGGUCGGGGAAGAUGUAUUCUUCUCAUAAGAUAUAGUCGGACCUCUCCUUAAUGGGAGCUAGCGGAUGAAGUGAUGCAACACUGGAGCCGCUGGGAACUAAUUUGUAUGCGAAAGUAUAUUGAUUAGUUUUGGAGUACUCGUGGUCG
Details: 30 °C
Respond using a number only.

Worked examples follow.
> print(dat)
         residue.string  observed.result
1  AGCCAGCAAUAUUACGGGCA            -1.78
2  GGAAAGCAAUAUUACGGAGC            -1.43
3  GCAAAGCAAUAUUACGAGAA               -3
4  ACGGAGCAAUAUUACGUAUG             -3.6
5  GCGCAGCAAUAUUACGAUGA           -0.132
6  CUUUAGCAAUAUUACGAAAG            -3.18

Now consider a different sequence.
Memo: GCGCAGCAAUAUUACGUGAG , reported self-splicing fitness (ln): -0.213
